Test system: Mycobacterium tuberculosis
ASSAY INFO: Inhibition of Mycobacterium tuberculosis K204 Eis assessed as kanamycin MIC at 100 uM preincubated for 24 hrs followed by kanamycin addition measured after 6 days by Alamar blue assay (Rvb >= 10 ug/ml)
Entries annotated with measured MIC

Some entries whose results are on file:
COMPOUND	MIC
COC(=O)c1cc2occc2n1CC(=O)c1ccccc1	5 to 10 µg/mL
COC(=O)c1cc2occc2n1CC(=O)c1ccc(Br)cc1	> 10 µg/mL
CCC(=O)Cn1c(C(=O)OC)cc2occc21	> 10 µg/mL
COC(=O)c1cc2occc2n1CC(=O)C(C)(C)C	> 10 µg/mL
COC(=O)c1cc2occc2n1CC(=O)c1cccc(OC)c1	> 10 µg/mL

--- query ---
The compound listed as O=C(CN1C(=O)C2(OCCO2)c2ccccc21)c1ccc(Cl)cc1 has a reported MIC of 5 to 10 µg/mL

====

Test system: Mycobacterium tuberculosis
ASSAY INFO: Inhibition of Mycobacterium tuberculosis K204 Eis assessed as kanamycin MIC at 100 uM preincubated for 24 hrs followed by kanamycin addition measured after 6 days by Alamar blue assay (Rvb >= 10 ug/ml)
READOUT: MIC

Consider the worked cases shown below.
COMPOUND	MIC
CC(C)(C)C(=O)CN1C(=O)C2(OCCO2)c2ccccc21	> 10 µg/mL
COC(=O)c1cc2occc2n1CC(=O)c1ccc2ccccc2c1	10 µg/mL

--- query ---
The compound identified as COc1cccc(C(=O)CN2C(=O)C3(OCCO3)c3ccccc32)c1 registered its MIC at > 10 µg/mL

====

IC50 for assorted compounds
MEASURED ON: N-acetyltransferase Eis (Mycobacterium tuberculosis (strain ATCC 25618 / H37Rv), UniProt P9WFK7)
Sequence (P9WFK7 whole entry): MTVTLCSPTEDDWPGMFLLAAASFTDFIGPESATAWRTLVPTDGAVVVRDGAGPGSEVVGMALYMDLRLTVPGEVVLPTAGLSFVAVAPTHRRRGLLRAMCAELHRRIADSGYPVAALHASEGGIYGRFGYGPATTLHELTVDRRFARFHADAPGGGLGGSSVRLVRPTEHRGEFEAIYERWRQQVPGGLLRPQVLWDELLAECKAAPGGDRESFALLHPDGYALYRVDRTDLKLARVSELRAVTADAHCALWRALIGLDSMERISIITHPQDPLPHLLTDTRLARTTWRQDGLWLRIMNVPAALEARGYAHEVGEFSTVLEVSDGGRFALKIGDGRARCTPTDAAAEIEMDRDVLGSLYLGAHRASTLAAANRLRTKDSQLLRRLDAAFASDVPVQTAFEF
ASSAY INFO: Inhibition of Mycobacterium tuberculosis H37Rv Eis expressed in Escherichia coli BL21(DE3) using Acetyl-CoA as substrate preincubated for 10 mins followed by substrate addition measured every 30 sec for 10 mins

COMPOUND	IC50
O=C(CN1C(=O)C2(OCCO2)c2ccccc21)c1ccccc1	0.33 µM
CC(C)(C)C(=O)CN1C(=O)C2(OCCO2)c2ccccc21	> 200 µM
COC(=O)c1cc2occc2n1CC(=O)C(C)(C)C	> 200 µM
COC(=O)c1cc2occc2n1CC(=O)c1ccc(F)cc1	0.3 µM
O=C(CN1C(=O)C2(OCCO2)c2ccccc21)c1ccc(F)cc1	0.09 µM

For reference, reported IC50 for COC(=O)c1cc2occc2n1CC(=O)c1cccc(Br)c1 stands at 0.5 µM

The recorded IC50 for entry O=C(CN1C(=O)C2(OCCO2)c2ccccc21)c1ccc(Br)cc1 equals > 200 µM

Field IC50 (entry CCC(=O)CN1C(=O)C2(OCCO2)c2ccccc21 ) reads > 200 µM

====

System: Mycobacterium tuberculosis
ASSAY INFO: Inhibition of Mycobacterium tuberculosis K204 Eis assessed as kanamycin MIC at 100 uM preincubated for 24 hrs followed by kanamycin addition measured after 6 days by Alamar blue assay (Rvb >= 10 ug/ml)
The compounds listed here are annotated with their MIC.

Below are worked cases with known answers.
COMPOUND	MEASURED ON	MIC
O=C(CN1C(=O)C2(OCCO2)c2ccccc21)c1ccc(Br)cc1	Mycobacterium tuberculosis	> 10 µg/mL
COC(=O)c1cc2occc2n1CC(=O)c1ccccc1F	Mycobacterium tuberculosis	10 µg/mL
O=C(CN1C(=O)C2(OCCO2)c2ccccc21)c1ccccc1F	Mycobacterium tuberculosis	10 µg/mL
COC(=O)c1cc2occc2n1CC(=O)c1ccc(C)cc1	Mycobacterium tuberculosis	5 to 10 µg/mL
O=C(CN1C(=O)C2(OCCO2)c2ccccc21)c1cccc([N+](=O)[O-])c1	Mycobacterium tuberculosis	5 to 10 µg/mL
CCC(=O)CN1C(=O)C2(OCCO2)c2ccccc21	Mycobacterium tuberculosis	> 10 µg/mL
O=C(CN1C(=O)C2(OCCO2)c2ccccc21)c1ccc2ccccc2c1	Mycobacterium tuberculosis	10 µg/mL

# input for lookup
Data point: Cc1ccc(C(=O)CN2C(=O)C3(OCCO3)c3ccccc32)cc1 ; MIC = 5 to 10 µg/mL

====

Each entry below carries its reported pIC50.
MEASURED ON: N-acetyltransferase Eis (Mycobacterium tuberculosis (strain ATCC 25618 / H37Rv))
ASSAY INFO: Inhibition of Mycobacterium tuberculosis H37Rv Eis expressed in Escherichia coli BL21(DE3) using Acetyl-CoA as substrate preincubated for 10 mins followed by substrate addition measured every 30 sec for 10 mins
pIC50: −log10 of the molar value.

For record CCC(=O)Cn1c(C(=O)OC)cc2occc21 the listed pIC50 is < 3.70

For this molecule ( O=C(CN1C(=O)C2(OCCO2)c2ccccc21)c1ccc(Cl)cc1 ), measured pIC50 is 5.66

pIC50 reading for COC(=O)c1cc2occc2n1CC(=O)c1cccc(OC)c1 : < 3.70
